target: human full-length MKNK1 (Homo sapiens (Human), UniProt Q9BUB5, T344D)
Sequence (Q9BUB5 other isoform, or with tags, fused parts or gaps T344D): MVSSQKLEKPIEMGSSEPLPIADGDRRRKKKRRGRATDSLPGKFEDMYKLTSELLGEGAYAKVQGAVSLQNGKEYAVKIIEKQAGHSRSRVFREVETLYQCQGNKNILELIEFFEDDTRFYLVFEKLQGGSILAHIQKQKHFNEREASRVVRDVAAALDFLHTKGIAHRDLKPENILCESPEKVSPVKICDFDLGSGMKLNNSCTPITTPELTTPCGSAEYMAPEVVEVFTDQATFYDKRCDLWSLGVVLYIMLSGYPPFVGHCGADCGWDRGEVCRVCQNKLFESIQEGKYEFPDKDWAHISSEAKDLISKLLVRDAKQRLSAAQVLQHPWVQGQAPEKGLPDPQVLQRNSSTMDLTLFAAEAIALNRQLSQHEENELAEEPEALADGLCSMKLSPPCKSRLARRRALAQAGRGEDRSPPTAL
assay_info: MKNK1 kinase high ATP assay (TR-FRET)
Type: biochemical
measurement_parameters: 2 mM ATP, 15 min preincubation with enzyme, GST-MKNK1 (T344D)
measured_attribute: IC50 (nM)
API: value field is a number in nM; no unit string.

Look up IC50 of Cc1cc(Nc2ncnc3ccc(Cl)cc23)c(=O)n2c1C(=O)NC21CCCC1 [Example 98] and report it.
7.6

Supply reported IC50 belonging to this molecule: Cc1cc(Nc2ncnc3sccc23)c(=O)n2c1C(=O)NC2(C)C [Example 135]
19.8

Give me measured IC50, please, for this molecule: Cc1cc(Nc2ncnc3sc(C(=O)N4CC[C@@H](N(C)C)C4)cc23)c(=O)n2c1C(=O)NC21CCC1 [Example 156]
4.3

Identify measured IC50 corresponding to Cc1cc(Nc2ncnc3sc(C(=O)N(C)CCN(C)C)cc23)c(=O)n2c1C(=O)NC21CCCCC1 [Example 13]
5.2

Note down IC50 recorded for Cc1cc(Nc2ncnc3sccc23)c(=O)n2c1C(=O)NC21CCCCC1 [Example 5]
6.4

In one line, give reported IC50 of the entry Cc1cc(Nc2ncnc3cccc(C)c23)c(=O)n2c1C(=O)N[C@]21CC[C@@](O)(C(F)(F)C(F)(F)F)CC1 [Example 191] .
67.8

For Cc1cc(Nc2ncnc3sccc23)c(=O)n2c1C(=O)NC21CCC1 [Example 149] , write its IC50.
2.3

Give the measured IC50 for Cc1cc(Nc2ncnc3sc(C(=O)N4CC[C@@H](N(C)C)C4)cc23)c(=O)n2c1C(=O)NC2(C)C [Example 142]
20

###

For each entry below, report its pIC50 value.
target: human full-length MKNK1 (Homo sapiens (Human), UniProt Q9BUB5, T344D)
assay_info: MKNK1 kinase high ATP assay (TR-FRET)
Assay type: biochemical
measurement_parameters: 2 mM ATP, 15 min preincubation with enzyme, GST-MKNK1 (T344D)
Experimental: MKNK1 Kinase High ATP Assay MKNK1-inhibitory activity at high ATP of compounds of the present invention after their preincubation with MKNK1 was quantified employing the TR-FRET-based MKNK1 high ATP assay as described in the following paragraphs. […]
Remember the convention: pIC50 equals -log10 of concentration in molar.

Kindly indicate its recorded pIC50. Item: Cc1cc(Nc2ncnc3sc(C(=O)N4CC(C#N)C4)cc23)c(=O)n2c1C(=O)NC21CCCC1
8.23

Give a short answer stating reported pIC50 for Cc1cc(Nc2ncnc3cccc(C)c23)c(=O)n2c1C(=O)NC21CCCCC1 .
8.01

Report pIC50, nothing else, for this molecule: Cc1cc(Nc2ncnc3sc(C(=O)N4CC(C#N)C4)cc23)c(=O)n2c1C(=O)NC21CCC(F)(F)CC1
7.60

Give the reported value of pIC50 for this record: Cc1cc(Nc2ncnc3[nH]ncc23)c(=O)n2c1C(=O)NC21CCC(F)(F)CC1
8.08

State its pIC50 for this molecule: Cc1cc(Nc2ncnc3sc(C(=O)N4CCC(N(C)C)CC4)cc23)c(=O)n2c1C(=O)NC21CCC(F)(F)CC1
7.64

Consider the molecule Cc1cc(Nc2ncnc3[nH]cnc23)c(=O)n2c1C(=O)NC21CCCC1 . State its measured pIC50.
9.15

Note pIC50 for the molecule shown: Cc1cc(Nc2ncnc3c2ncn3[C@H]2O[C@@H](CO)[C@H](O)[C@H]2O)c(=O)n2c1C(=O)NC21CCCCC1
7.33

Indicate the recorded pIC50 value for this molecule: Cc1cc(Nc2ncnc3sc(C(=O)N4CC(N)C4)cc23)c(=O)n2c1C(=O)NC2(C)C
7.65

Determine from records and report pIC50 for Cc1cc(Nc2ncnc3cccc(C)c23)c(=O)n2c1C(=O)NC21CCCC1
7.89

Please indicate pIC50 recorded for Cc1cc(Nc2ncnc3sc(C(=O)O)cc23)c(=O)n2c1C(=O)NC21CCC(F)(F)CC1
6.90

Look up and report measured pIC50 for this entry: Cc1cc(Nc2ncnc3sc(C(=O)N4CC(N)C4)cc23)c(=O)n2c1C(=O)NC21CCCC1
8.82

Respond only with pIC50 recorded for Cc1cc(Nc2ncnc3c2CN(C(=O)OC(C)(C)C)C3)c(=O)n2c1C(=O)NC2(C)C
7.77

Using known records, supply pIC50 for Cc1cc(Nc2ccnc3[nH]ccc23)c(=O)n2c1C(=O)NC21CCCCC1
7.91

Supply measured pIC50 of Cc1cc(Nc2ncnc3scnc23)c(=O)n2c1C(=O)NC21CCCCC1 in your reply.
8.54

Identify measured pIC50 corresponding to Cc1cc(Nc2ncnc3c2CN(S(=O)(=O)c2ccccn2)C3)c(=O)n2c1C(=O)NC21CCCCC1
6.91
